Assay Explanation: soluble on expression in E. coli; label from the status in PepcDB or PDB records

Sequence Content	soluble on expression in E. coli
MGSDKIHHHHHHMPTLDPLSLRLFVSVAEAGTIAAAAEREHIAAAAVSKRISEIEATLGVALLRRTNKGVAPTAAGERLVVLAHRALHELDDIAVQMRDYASGVSGLIRLAANVSSVVQFLPREIQAFAAQHPRIQIQLEEKASAGVVKAVADNAVDIGIFTSVPHGYEVQTFPYHRDFLTLVVPGGHTLAQKQAVAFADTLDFEYVGLPPDTAISQQLTRAAHAHARPVNLRIQVTSYDAQCLMIAAGLGLGVMPHAVAQQQAANLGLATVALTDAWAERELLIAVRSLEALPVACRMLVAHLRGA	not soluble
MAHHHHHHMMAIRNMLRKIIIKHGKVANAVWVPKRFINMNPTGNEEKVTQERNKRDYILSLDEALYLSKEMGIKTTTEIQKIIMRSPPFSPDMSPFLIDNFLSSANKDRHSDEIDQIDLKLKELQERDSNPEESEQGEDEGAVENSKINISHDREENIINKILIDKFNKKRGKTFIHNDMEWLEESEGIGTNKRSCAYVYIKRGSGIVKVNDEEDLYIRWPYFYNRMDVLEPFYVTNTSCVFDVFIKLKGGGISGQSKAARLAIGRALLNACPLIYDDLQQHHILYEDMRQKFPKMPGRKKSRAMKQWSKR	not soluble
MVFNRVVQIGRVVFIASGKDQGKLAAIVNVIDGNRVQIDGPSSDVTRTVRNLKDLQLTKFVLKLRVGQRTKGVKAAFDAAKVTENFQKTQWAKKIAQRAIRAKLTDFERYKLMKAKQMRNRIVRVELAKLKKAQK	not soluble
MSSEIAYSNTNTNTENENRNTGAGVDVNTNANANANATANATANATANATAELNLPTVDEQRQYKVQLLLHINSILLARVIQMNNSLQNNLQNNINNSNNNNIIRIQQLISQFLKRVHANLQCISQINQGVPSAKPLILTPPQLANQQQPPQDILSKLYLLLARVFEIW	not soluble
MDPMYLLVDVGNTHSVFSITEDGKTFRRWRLSTGVFQTEDELFSHLHPLLGDAMREIKGIGVASVVPTQNTVIERFSQKYFHISPIWVKAKNGCVKWNVKNPSEVGADRVANVVAFVKEYGKNGIIIDMGTATTVDLVVNGSYEGGAILPGFFMMVHSLFRGTAKLPLVEVKPADFVVGKDTEENIRLGVVNGSVYALEGIIGRIKEVYGDLPVVLTGGQSKIVKDMIKHEIFDEDLTIKGVYHFCFGD	soluble
MSLKIDSIIFDLDGTLWNSIEGVCEAWKVVLKRHSNINKIITPKDIKASMGLQIDEIGKLLFPEEDEKMQLQLMNECCDEEKLYLGEHGGKLFAKLEPTLNKLSQKYKLFIVSNCEDGYIQSFFKAHGLNKYFTDFECSGVTGLSKGENNKLIIKRNSLKNPVYVGDTLKDFESAKIANIPFVYARYGFGDVNEYDYVIDSFEEMLTLDEGHHHHHH	soluble

====

Assay Explanation: soluble on expression in E. coli; label from the status in PepcDB or PDB records

Sequence Content	soluble on expression in E. coli
YRQQFDFSCGSAALASLLTFHYDDSVDEQSVFVDMFQHGDQEKIRREGFSMLDMKRYLERRGYGSDGFKINLDQLYSTGSPAITIINHNGYMHFVIIKGVDEDRVLVGDPAQGVKSMDRTEFERMWGNRIVFLIHNHVD	not soluble
MSNTLNHTSSRQIVRHYTHSQKRCKHLMQYFVSANGLFELKVKIYAFLFSMILEGKCRSVSIIADISCFFLFHFHAIRNAFYSIHPTYRAEGENERLTLLLIAQGYALSL	not soluble
MAHHHHHHMIEDNIDENCQIYLNPKNWLKEFENTKINENDINEVLMNYFCVHRMYDVAKEFQKESNVKPDMPINTVKIRYLIQNEIMNNKIEEAIEHINNLDKGILKKHKDLVFFLKKQQLLKLILNNNINEAIIYSQQELASYVKEKPSLINEIDDVMMLMAYQDFNNEEAKNLIQKIEKKKNTLKRIDDIILNYYNVDSESTLEYMVKNVFFTQNVLSSKYPCSVPKIKNLKSGYIEYYEKYKKKKRKSSSKKYRSKDKDKVDKHDKKNVDNIVKDFDVTNDEEYRSV	not soluble

====

Assay Explanation: soluble on expression in E. coli; label from the status in PepcDB or PDB records

Sequence Content	soluble on expression in E. coli
MGHHHHHHSHMGLWQQISNCMPDLALCSDIKFFLRCLERWLNRNSSALQLPARSTQKEIISAFPTKVPSSSHWDWLDSGCSPQKASRSRVGCRLTREAQGVRELPPLAKGSCEGLCREERGIPAQILCFPHGLCNPQTRRFPWVPAPPGPWVSSKKLGSHLGRH	not soluble
MGSDKIHHHHHHMTDDSLFLIDVDKILRTKAPKQYKYIPKFVVSYLKKIVHQDEINVFLNESKDKLGVDFLEACMEFLDAKVEVKGIENLPKEGLYTFVSNHPLGGQDGVALGYVLGRHYDGKVKYLVNDLLMNLRGLAPLCVPINKTGKQAKDFPKMVEAGFQSDDQMIMFPAGLCSRRQNGVIRDLEWKKTFIIKSIQAKRDVVPVHFGGRNSDFFYNLANVCKALGIKFNIAMLYLADEMFKNRHKTFTVTFGKPIPWQTFDKSKTPAQWAEYVKDIVYKL	not soluble

====

Assay Explanation: soluble on expression in E. coli; label from the status in PepcDB or PDB records
Value Kind: soluble on expression in E. coli

Sequence Content	Result
EAIGASVIPMSAGNTEKQIMIMQDYKTTALVCTPSYAITIADRMEKMGVDPKSLSLKVGLFGAEPWSEAMRKEIENRLFVSATDNYGLSEIIGPGVAGDCEYKCGMHIS	not soluble
QLTPTFYDNSCPNVSNIVRDTIVNELRSDPRIAASILRLHFHDCFVNGCDASILLDNTTSFRTEKDAFGNANSARGFPVIDRMKAAVESACPRTVSCADLLTIAAQQSVTLAGGPSWRVPLGRRDSLQAFLDLANANLPAPFFTLPQLKDSFRNVGLNRSSDLVALSGGHTFGKNQCRFIMDRLYNFSNTGLPDPTLNTTYLQTLRGLCPLNGNLSALVDFDLRTPTIFDNKYYVNLEEQKGLIQSDQELFSSPNATDTIPLVRSFANSTQTFFNAFVEAMDRMGNITPLTGTQGQIRLNCRVVNSNSLLHDMVEVVDFVSSM	soluble
MKVFGISGSPRLQGTHFAVNYALNYLKEKGAEVRYFSVSRKKINFCLHCDYCIKKKEGCIHKDDMEEVYENLIWADGVIIGTPVYQGNVTGQLKTLMDRCRAILAKNPKVLRGRVGMAIAVGGDRNGGQEIALRTIHDFFIINEMIPVGGGSFGANLGATFWSKDRGKKGVEEDEEGLRVLRKTLNRFYEVLKEKRGLLEHHHHHH	not soluble
SLRASDDKALQYAIAEITEIATGFGLDFYPMRYEICPAEIIYTFGAYGMPTRFSHWSFGKQFFRMKLQYDLGLSKIYELVINSDPCYAFLLDTNSLIQNKLIVAHVLAHCDFFKNNIRFSNTKRDMVESMSATAERVKAYEHKYGKEEVETFLDAVLAIQEHIDPSLMRPKLAWSIDDLEEEEVEKKKVSQYDDLWNLDNRNKKRERSNVRKKKKIPPQPEKDLLLFIEEYSRELEDWQRDILTMMREEMLYFWPQLETKIMNEGWASYY	soluble
MEYTSIADTGIEASRIGLGTWAIGGTMWGGTDEKTSIETIRAALDQGITLIDTAPAYGFGQSEEIVGKAIKEYMKRDQVILATKTALDWKNNQLFRHANRARIVEEVENSLKRLQTDYIDLYQVHWPDPLVPIEETAEVMKELYDAGKIRAIGVSNFSIEQMDTFRAVAPLHTIQPPYNLFEREMEESVLPYAKDNKITTLLYGSLCRGLLTGKMTEEYTFEGDDLRNHDPKFQKPRFKEYLSAVNQLDKLAKTRYGKSVIHLAVRWILDQPGADIALWGARKPGQLEALSEITGWTLNSEDQKDINTILENTISDPVGPEFMAPPTREEIPG	soluble
GAPLKAVSAFAPPLHTQDFNLYSGEVHAHFTDYEAGMAFARQENKPVLLDFSGHGCVNCRKMENAVWIDPTVKSMLEKDYVLITLMVDEKKPLAEPLTIVFDGKEKTLRTVGDKWSYLQSHKFGANAQPFYVAIDHEGKPLSASYSYNEDVPLYVDFLKGGLQEFKKRKNK	not soluble
PKKEVVRIHASSGTTGKPTVVGYTKKDLKTWAELISRVVTAAGVTDEDTAQVAFGYGLFTGGFGLHYGLENVGASVIPMSSGNTEKQIMLMKDFETTVLICTPSYALYISEVAQKMGIDPKKDLKLKIGLFGGEACSESARTEIESKWGILATQNYGMSELMGPGVSGECEYQCGMHIS	not soluble
MDSGMVTPELKKAFAERGIDIIPVDVGTKMLVNELHPSHHDSTQVVIGSPIIPAPGNIDPQLRSYRIRRRMTVEANPFLLDHVIAGTPVLPATCGMSWMINACEECYPGYRYFRCQDFKILKGITFNDKVASEHILEIQEVAKHGSESIEFKTKVLSKTPEGKIHYHFSAHITIVRELPAAPVYESLDMTEDHTIGAIGKDFYQKGGLSLFHGISFQQITRVLNINSQKITVECCWAEIPLETQGQFPVKWHNPYATDLSTQPLWLWLSHVHQEVCLPGQITKSEQFRAIPRNKPFYVSCEIEHKTPSGVTADIILHDREGKIYFRIYQAKAIIAPMNLHLEHHHHHH	not soluble
MAHHHHHHMSEQILFDNFPLTFLNKDASEDYEDKNEKTYREKIKNIIEDLKSLRIEINEKYSIRSMLEEKLTLLQKEEQTKENNMKYIMNFSEHNIYEREVLNYQKNIAHLKKQIQTSNSKIKLLLEKEFKVRKQLQINYMNLYDILNERIEYIVENYVKHRKCSCAIYAYKQEKKEE	not soluble
MAHHHHHHMTSPMLMAAENFCFTPQSHFMVKTPKSERAHQCSKLYNEAFVVSNRTGLRSILRANESGRSYLNGGGIIARVWALEEALKAFFNLRKKKFVWGCDQSMWALLLIWSITRPENIKPALLVRRGLISLDYETRYFLYPSKTMVMSGMILHFAGPVHVWKRTLPQYLSEINWYRALSNSSPKREASIRLLKNSTVEMYTFWGSRKDAKLSTVCPISNISDPSWLSGQLKK	soluble
TTFENKKVLVLGLARSGEAAARLLAKLGAIVTVNDGKPFDENPTAQSLLEEGIKVVCGSHPLELLDEDFCYMIKNPGIPYNNPMVKKALEKQIPVL	not soluble
MLLKGLYKVEFETPRRKAVGVIFASDGRLHGGSSAFAYIGAYEQQGQTIQGTITARRHTSDPAIQSVFGVDEVRVDFHGSTIGDYAQVEGMAAEAPSLGFKALLTRISQ	not soluble
MSLCRVLAVKPSSYYDWMNRNISDQQIHRNQCELLVKAAHTETRERYGVDRLQAHLRQQGHYVSQYMIRSIKEEYGIKCRRHKRFKMTTNSNHNKLVYLNVLDQQFDAKHPNESWVSDITYIWTNEGWLYLAGVKDLYTKELVGYAINKRMTADLVCRALNMAIKNKRPRQGLIVHSDRGSQYCSHAYHKIIEQHQFTGSMSAKGNCFDNAPIESFWGVLKNELVYHQDYKTRFEAISDITQYIELEYNEERLAKHCFAATQDKSCARSGAREGHHHHHH	soluble
